target: GRIP2_6, Q9C0E4; assay: holdup assay; set-up: key: below the threshold = too weak to quantify, mostly under pKd 3.1 to 4; conditions: plain residues with an end cap or a label only (N-terminal biotin on a linker: ado-ado)
Sequence (Q9C0E4 648-740): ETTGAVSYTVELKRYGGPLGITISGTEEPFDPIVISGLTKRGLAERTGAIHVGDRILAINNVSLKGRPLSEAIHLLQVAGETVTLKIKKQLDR

| binder | pKd |
| --- | --- |
| APIAGFSSFV [SDK2, Q58EX2] | below the threshold |
| REEPDHSTEV [CCRL2, O00421] | 3.54 |
| NVYGIESVKI [GRIA2, P42262] | 3.64 |
| PPGKHLVTEV [KCNA7, Q96RP8] | below the threshold |
| TGLWKHETTV [ADGRA3, Q8IWK6] | 3.55 |
| ARESQKVSHV [FAM110B, Q8TC76] | below the threshold |
| PTPDLPQTRV [KLHDC7A, Q5VTJ3] | below the threshold |
| EIPAQSPTCV [FZD10, Q9ULW2] | 3.74 |
| ARSAAASNYV [CLDN4, O14493] | below the threshold |
| SVTSERETNI [SLC16A7, O60669] | below the threshold |
| SRSVVESDEL [MYPN, Q86TC9] | 3.95 |
| STKRKLASAV [NCF1, P14598] | below the threshold |
| NIAESLESLV [PTPRZ1, P23471] | below the threshold |
| QSGLYESEEL [MYOT, Q9UBF9] | 4.67 |
| QLSFNTDTLC [ABCA2, Q9BZC7] | below the threshold |
| NNNVVKVDSV [MTNR1A, P48039] | below the threshold |
| QKAPTKEFYA [SDC2, P34741] | 4.1 |
